Value source: ChEMBL document CHEMBL1201862

# test system: Heat shock factor protein 1 (Mus musculus, UniProt P38532)
# Sequence (P38532 whole entry): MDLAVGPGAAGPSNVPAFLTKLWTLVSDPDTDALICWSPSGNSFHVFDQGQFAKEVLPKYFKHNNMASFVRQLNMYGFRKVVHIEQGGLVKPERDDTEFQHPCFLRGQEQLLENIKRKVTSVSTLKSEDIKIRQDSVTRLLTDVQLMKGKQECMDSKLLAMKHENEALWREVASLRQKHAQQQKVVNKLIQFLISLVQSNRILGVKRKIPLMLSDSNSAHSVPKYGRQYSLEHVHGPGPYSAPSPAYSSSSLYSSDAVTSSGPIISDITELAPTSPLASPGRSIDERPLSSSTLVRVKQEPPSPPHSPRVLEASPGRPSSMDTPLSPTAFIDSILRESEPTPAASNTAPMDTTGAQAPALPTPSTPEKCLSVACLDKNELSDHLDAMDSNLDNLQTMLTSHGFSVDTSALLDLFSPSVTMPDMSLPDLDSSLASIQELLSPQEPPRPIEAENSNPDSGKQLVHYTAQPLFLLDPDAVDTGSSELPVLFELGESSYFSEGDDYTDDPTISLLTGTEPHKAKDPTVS
# assay procedure: HSF1 potentiators in luciferase reporter cells, confirmation, cell-based, NIH3T3, luminescence, dose retest (AID 435004);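 further: stress induced by proteasome inhibitor MG132 added 30 min after compound; luciferase reporter driven by HSF1 response element in NIH3T3 cells; actives raise luminescence as potentiators of the MG132 stress response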
# Type: functional
Active and inactive are the calls of the source. No stated cut-off is given here; in the data, actives have a measured EC50 and inactives only a lower limit.
Answer with one of the outcomes true (1) for active, false (0) for inactive

INSERT INTO results (compound, category_label) VALUES
  ('Cc1ccccc1N1CCN(S(=O)(=O)Cc2ccccc2)CC1', 'false (0)'),
  ('CC(=O)c1ccccc1NC(=O)C1C2CCC(O2)C1C(=O)O (stereo not drawn)', 'false (0)'),
  ('O=C(CN1C(=O)NC2(CCCc3ccccc32)C1=O)Nc1cccc(S(=O)(=O)N2CCCCC2)c1 (stereo not drawn)', 'false (0)'),
  ('CCOc1cccc(C2NCc3ccccc3-n3cccc32)c1O (stereo not drawn)', 'false (0)'),
  ('O=C(NCc1cc(C(F)(F)F)cc(C(F)(F)F)c1)C1CC(c2cccc([N+](=O)[O-])c2)=NO1 (stereo not drawn)', 'true (1)');

Called result for COCCN(CCOC)c1nc(-c2ccc(C)cc2)nc2ccccc12
false (0)

Same lookup for O=C(CSCc1ccc(Br)cc1)N1CCCC1 , please.
true (1)

Same lookup for COC(=O)c1ccccc1N=C(S)N(Cc1ccc2c(c1)OCO2)Cc1cc2ccc(OC)cc2nc1O , please.
false (0)

Same lookup for C=CCn1c(=O)c2c3c(sc2n2c(Nc4ccccc4)nnc12)CCCC3 , please.
false (0)

Same lookup for Brc1ccc(OCc2cn3ccccc3n2)cc1 , please.
false (0)

Same lookup for O=c1cccc2n1CC1CC2CN(c2nc(N3CCCCC3)nc(N3CCCCC3)n2)C1 (stereo not drawn) , please.
false (0)

Same lookup for CC12CCC3C(CC=C4CC(O)CCC43C)C1C/C(=C\N1CCCC1)C2=O (stereo not drawn) , please.
false (0)

Same lookup for O=C(CCCl)Nc1nc2c(s1)CCc1ccccc1-2 , please.
true (1)

Same lookup for O=[N+]([O-])c1cccc(-c2ncc3ccccn23)c1 , please.
false (0)

Same lookup for COc1cc2c(cc1OC)C(C)N(S(=O)(=O)c1cnc(Cl)c(Cl)c1)CC2 (stereo not drawn) , please.
true (1)
